Reference source: patent US20200325505A1

Test system: Mortierella elongata AG77
Assay overview: Carbon source utilisation in Biolog 96-well plates, formazan formation after tetrazolium addition
Format: cell-based
Measured metric: Toxic

Known Toxic results, listed for orientation:
NC(=O)C[C@H](N)C(=O)O = yes
O=C(O)/C=C/C(=O)O = no
NCCCCN = no
NCCCC(=O)O = no
O=C(O)[C@]1(O)C[C@@H](O)[C@@H](O)[C@H](O)C1 = no

Proceed to the following item.
QUERY: Give the reported value of Toxic for this record: `N[C@@H](Cc1c[nH]cn1)C(=O)O`
RESULT: no

----------
Test system: Mortierella elongata AG77
Assay overview: Nitrogen source utilisation in Biolog 96-well plates, formazan formation after tetrazolium addition
Type: cell-based
Measured metric: Toxic

NCCCCC(=O)O [δ-Amino Valeric Acid] = no
NC(=O)C[C@H](N)C(=O)O [L-Asparagine] = no
CCCCCN [N-Amylamine] = no
CC(C)[C@@H](N)C(=O)O [D-Valine] = no
NCCCC[C@@H](N)C(=O)O [D-Lysine] = no
CC(C)C[C@H](N)C(=O)O [L-Leucine] = no

QUERY: Determine from records and report Toxic for O=C1CC[C@@H](C(=O)O)N1 [L-Pyroglutamic Acid]
RESULT: no

----------
Test system: Mortierella elongata AG77
Assay overview: Nitrogen source utilisation in Biolog 96-well plates, formazan formation after tetrazolium addition
Format: cell-based
Run conditions: compound as nitrogen source; Toxic = less formazan formation than a control containing no nitrogen source
Residues, ends and D or L forms follow the SMILES beside them.
Measured metric: Toxic

Worked examples, 10 molecules total:
NCC(=O)N[C@@H](CCC(=O)O)C(=O)O [Glycyl-L-Glutamic Acid] (H-Gly-Glu-OH) = no
CC(=O)N[C@H]1C(O)O[C@H](CO)[C@@H](O)[C@@H]1O (stereo partly drawn) [N-Acetyl-D-Glucosamine] = no
CC(=O)N[C@H]1C(O)O[C@H](CO)[C@H](O)[C@@H]1O (stereo partly drawn) [N-Acetyl-D-Galactosamine] = no
C[C@H](N)C(=O)N[C@@H](CC(=O)O)C(=O)O [Ala-Asp] (H-Ala-Asp-OH) = no
C[C@H](N)C(=O)N[C@H](C(=O)O)[C@@H](C)O [Ala-Thr] (H-Ala-Thr-OH) = no
NCCO [2-Aminoethanol] = no
N[C@H](CCC(=O)O)C(=O)O [D-Glutamic Acid] = no
CCC[C@H](N)C(=O)O [α-Amino-N-Valeric Acid] = no
NCC(=O)N[C@@H](CCC(N)=O)C(=O)O [Gly-Gln] (H-Gly-Gln-OH) = no
CCCCN [N-Butylamine] = no

Need Toxic for each of these molecules.
1. CSCC[C@H](N)C(=O)N[C@@H](C)C(=O)O [Met-Ala] (H-Met-Ala-OH)
2. NC(=O)[C@@H](O)[C@@H](O)[C@H](O)[C@@H](O)C=O [Glucuronamide]
3. OC[C@H]1O[C@@H](n2cnc3c(O)ncnc32)[C@H](O)[C@@H]1O [Inosine]
4. NCCc1ccccc1 [Phenylethyl-amine]
5. Nc1nc2c(ncn2[C@@H]2O[C@H](CO)[C@@H](O)[C@H]2O)c(=O)[nH]1 [Guanosine]
6. C[C@H](N)C(=O)N[C@@H](CCC(=O)O)C(=O)O [Ala-Glu] (H-Ala-Glu-OH)

RESULT:
1: no; 2: no; 3: no; 4: no; 5: no; 6: no
